Assay: qHTS of pediatric cancer cell lines to identify multiple opportunities for drug repurposing: Primary screen for A673 cells (AID 1347092); further: nearly all actives have a fitted effect of over 45% in size
Details: A673 Ewing sarcoma viability, CellTiter-Glo ATP luminescence, 48 h; series mostly up to 46 µM
Records with an inconclusive call do not appear. The source made the active and inactive calls. The call rests on the fitted dose curve; in most records, active means well fitted cell-killing curve with a large enough effect; inconclusive means small, poorly fitted or top-dose-only effect; inactive means no such curve, though single readings can be large or run the other way.
Classes used: active, inactive

[
  {
    "COMPOUND": "CCOC(CN1C(=O)[C@](CC(=O)Nc2ccc(C)cc2)(NC(=O)Nc2ccc(C)cc2)c2ccccc21)OCC",
    "LABEL VALUE": "active"
  },
  {
    "COMPOUND": "CN1[C@@H]2CCC[C@@H]1CC(NC(=O)c1nn(C)c3ccccc13)C2 (some centres not stated)",
    "LABEL VALUE": "inactive"
  },
  {
    "COMPOUND": "CC1(C)CCC[C@@]2(C)[C@@H]1CC[C@@]1(C)OC(=O)C[C@H]21",
    "LABEL VALUE": "inactive"
  },
  {
    "COMPOUND": "O=C(O)Cc1cccc2ccccc12",
    "LABEL VALUE": "inactive"
  },
  {
    "COMPOUND": "COc1ccc(-c2nc(N3CCOCC3)c3sc(CN(C)c4ncc(C(=O)NO)cn4)cc3n2)cn1",
    "LABEL VALUE": "active"
  },
  {
    "COMPOUND": "CC(C)(C(=O)NCC(F)(F)C(F)(F)F)C(=O)N[C@@H]1C(=O)Nc2ccccc2-c2ccccc21",
    "LABEL VALUE": "active"
  },
  {
    "COMPOUND": "O=C(NCCN1CCOCC1)c1ccc(Cl)cc1",
    "LABEL VALUE": "inactive"
  }
]

###

Test: qHTS of pediatric cancer cell lines to identify multiple opportunities for drug repurposing: Primary screen for Saos-2 cells (AID 1347097); further: nearly all actives have a fitted effect of over 40% in size
Settings: Saos-2 viability, CellTiter-Glo ATP luminescence, 48 h; series mostly up to 46 µM
Records with an inconclusive call do not appear. Active and inactive are the calls of the source. Calls follow the shape of the dose curve; as a rule, active = well fitted cell-killing curve with a large enough effect; inconclusive = small, poorly fitted or top-dose-only effect; inactive = no such curve, though single readings can be large or run the other way.
Classes used: active, inactive

[
  {
    "COMPOUND": "O=C(Nc1cc(Cl)cc2c1[nH]c1cnccc12)c1cccnc1",
    "LABEL VALUE": "inactive"
  },
  {
    "COMPOUND": "c1ccc2c(Cc3c[nH]c4ccccc34)c[nH]c2c1",
    "LABEL VALUE": "active"
  },
  {
    "COMPOUND": "COc1cc2ncnc(Nc3ccc(F)c(Cl)c3)c2cc1OCCCN1CCOCC1",
    "LABEL VALUE": "active"
  },
  {
    "COMPOUND": "CCCNC(=O)NS(=O)(=O)c1ccc(Cl)cc1",
    "LABEL VALUE": "inactive"
  },
  {
    "COMPOUND": "NC1=N[C@@]2(c3cc(NC(=O)c4ccc(F)cn4)ccc3F)COC[C@@H]2CS1",
    "LABEL VALUE": "active"
  },
  {
    "COMPOUND": "CC(C)OC(=O)C(C)(C)Oc1ccc(C(=O)c2ccc(Cl)cc2)cc1",
    "LABEL VALUE": "inactive"
  },
  {
    "COMPOUND": "CC/C(=C(\\c1ccccc1)c1ccc(OCCN(C)C)cc1)c1ccccc1",
    "LABEL VALUE": "active"
  },
  {
    "COMPOUND": "CC(C)(C)COc1ccc(-n2cc(C(=O)O)cn2)cc1C#N",
    "LABEL VALUE": "inactive"
  },
  {
    "COMPOUND": "O=C(N[C@@H](c1ccccc1)[C@@H]1CCCCN1)c1cccc(C(F)(F)F)c1Cl",
    "LABEL VALUE": "inactive"
  },
  {
    "COMPOUND": "NS(=O)(=O)c1cccc2c1C(=O)c1cccc(O)c1C2=O",
    "LABEL VALUE": "active"
  },
  {
    "COMPOUND": "CC1(C)O[C@H]2C[C@@H]3[C@H]4CCC5=CC(=O)C=C[C@]5(C)[C@@]4(F)[C@@H](O)C[C@]3(C)[C@]2(C(=O)CO)O1",
    "LABEL VALUE": "inactive"
  },
  {
    "COMPOUND": "C[N+](C)(C)CC(=O)O",
    "LABEL VALUE": "inactive"
  },
  {
    "COMPOUND": "CC(=O)CCCCn1c(=O)c2c(ncn2C)n(C)c1=O",
    "LABEL VALUE": "inactive"
  },
  {
    "COMPOUND": "CC[C@@H]1C=C(C)C[C@H](C)C[C@H](OC)[C@H]2O[C@@](O)(C(=O)C(=O)N3CCCC[C@@H]3C(=O)O[C@H](C(C)=C[C@@H]3CC[C@H](Cl)[C@H](OC)C3)[C@H](C)[C@@H](O)CC1=O)[C@H](C)C[C@H]2OC",
    "LABEL VALUE": "active"
  },
  {
    "COMPOUND": "Oc1ccc(C2CCN(c3ccnc4ccccc34)CC2)cc1O",
    "LABEL VALUE": "inactive"
  },
  {
    "COMPOUND": "CCC(=O)NC[C@H](Cc1ccc(OCCc2nc(-c3ccccc3)oc2C)cc1)NC(C)=CC(=O)c1ccc(C(F)(F)F)cc1",
    "LABEL VALUE": "active"
  },
  {
    "COMPOUND": "COc1ccc(-c2cc(=O)c3c(O)cc(O)cc3o2)cc1O",
    "LABEL VALUE": "active"
  },
  {
    "COMPOUND": "CC(=O)O[C@]1(C(C)=O)CC[C@H]2[C@@H]3C=C(Cl)C4=CC(=O)[C@@H]5C[C@@H]5[C@]4(C)[C@H]3CC[C@@]21C",
    "LABEL VALUE": "active"
  },
  {
    "COMPOUND": "CC(C)C(C)C=CC(C)C1CCC2C3=CC=C4CC(O)CCC4(C)C3CCC21C (stereo not drawn)",
    "LABEL VALUE": "inactive"
  },
  {
    "COMPOUND": "CC(C)=CC[C@@H](O)C1=CC(=O)c2c(O)ccc(O)c2C1=O",
    "LABEL VALUE": "active"
  },
  {
    "COMPOUND": "CC=CC[C@@H](C)C(=O)[C@H]1C(=O)N[C@@H](C(C)C)C(=O)N(C)CC(=O)N(C)[C@@H](CC(C)C)C(=O)N[C@@H](C(C)C)C(=O)N(C)[C@@H](CC(C)C)C(=O)N[C@@H](C)C(=O)N[C@H](C)C(=O)N(C)[C@@H](CC(C)C)C(=O)N(C)[C@@H](CC(C)C)C(=O)N(C)[C@@H](C(C)C)C(=O)N1C",
    "LABEL VALUE": "active"
  },
  {
    "COMPOUND": "CO[C@H]1C[C@@H]2CC[C@@H](C)[C@@](O)(O2)C(=O)C(=O)N2CCCC[C@@H]2C(=O)O[C@H]([C@H](C)C[C@@H]2CC[C@H](OC(=O)C(C)(CO)CO)[C@H](OC)C2)CC(=O)[C@H](C)C=C(C)[C@@H](O)[C@@H](OC)C(=O)[C@H](C)C[C@H](C)C=CC=CC=C1C",
    "LABEL VALUE": "active"
  },
  {
    "COMPOUND": "CN[C@@H](C)C(=O)N[C@H]1CN(C(=O)CC(C)C)CC[C@H]2CC[C@@H](C(=O)NC(c3ccccc3)c3ccccc3)N2C1=O",
    "LABEL VALUE": "active"
  },
  {
    "COMPOUND": "COC(=O)C1=CO[C@@H](O)[C@@H]2C(CO)=CC[C@@H]12",
    "LABEL VALUE": "inactive"
  },
  {
    "COMPOUND": "O=C1c2ccccc2-[n+]2ccc3c([nH]c4ccccc43)c21",
    "LABEL VALUE": "active"
  },
  {
    "COMPOUND": "Nc1nc(F)nc2c1ncn2[C@@H]1O[C@H](COP(=O)(O)O)[C@@H](O)[C@H]1O",
    "LABEL VALUE": "active"
  },
  {
    "COMPOUND": "COc1cc2nc(-c3ccc(N4CCN(C)CC4)cc3)nc(NCCN3CCOCC3)c2cc1OC",
    "LABEL VALUE": "active"
  },
  {
    "COMPOUND": "O=C(NCCN1CCOCC1)c1ccc(Cl)cc1",
    "LABEL VALUE": "inactive"
  }
]
